- Test system: cerebrovascular resistance
- Measurement Description: cerebrovascular resistance on the rabbit (Hutten and Vaupel), decrease in vascular resistance after arterial application
- Assay type: in vivo
- Details: Table 1; rabbit, 0.1 ml of a 1% solution, arterial application
Where a name gives a salt, the structure may show the parent alone.
Recorded Absolute decrease of vascular resistance R values for a group of molecules are listed next.
Observable: Absolute decrease of vascular resistance R

# Molecule, Meas Value
data = [
    ("COc1cc(CN2CCN(c3ccc(C)cc3)CC2)cc(OC)c1OC [p. Methyl-, hydrochloride]", "3,3 mm Hg min/l"),
    ("COc1cccc(N2CCN(Cc3cc(OC)c(OC)c(OC)c3)CC2)c1.Cl", "3,0 mm Hg min/l"),
    ("CCc1ccccc1N1CCN(Cc2cc(OC)c(OC)c(OC)c2)CC1.Cl.Cl", "3,0 mm Hg min/l"),
    ("CCOc1ccccc1N1CCN(Cc2cc(OC)c(OC)c(OC)c2)CC1.Cl.Cl", "2,85 mm Hg min/l"),
    ("COc1cc(CN2CCN(c3ccccc3F)CC2)cc(OC)c1OC.Cl", "3,0 mm Hg min/l"),
]

---

- Measurement Description: acute toxicity after oral application, LD50
- Details: in vivo; Table 3; mouse oral, 14 days; read-out: Acute toxicities LD50, 14 days
Counter-ions that a name gives are not always drawn.

# Compound, LD50 at 336 h [mg/kg]
rows = [
    ("COc1cc(CN2CCN(c3ccc(C)cc3)CC2)cc(OC)c1OC [p. Methyl-, hydrochloride]", 312),
    ("CCOc1ccccc1N1CCN(Cc2cc(OC)c(OC)c(OC)c2)CC1.Cl.Cl [o. Ethoxy-]", 266),
    ("COc1cc(CN2CCN(c3cccc(C)c3)CC2)cc(OC)c1OC.Cl [m. Methyl-]", 310),
    ("COc1cc(CN2CCN(c3ccccc3Cl)CC2)cc(OC)c1OC.Cl.Cl [o. Chloro-]", 255),
    ("COc1cc(CN2CCN(c3ccc(F)cc3)CC2)cc(OC)c1OC.Cl [p. Fluoro-]", 275),
]

---

- Measurement Description: in vivo
Observable: selectivity ratio

# Compound, Meas Value
data = [
    ("COc1cc(CN2CCN(c3c(C)cccc3C)CC2)cc(OC)c1OC [Example 6]", 3800),
    ("COc1cc(CN2CCN(c3ccc(Cl)c(C(F)(F)F)c3)CC2)cc(OC)c1OC [Example 2]", 3150),
    ("COc1cc(CN2CCN(c3ccc4c(c3)OCO4)CC2)cc(OC)c1OC [Example 3]", 2700),
    ("COc1cc(CN2CCN(c3cc(OC)c(OC)c(OC)c3)CC2)cc(OC)c1OC [Example 4]", 7000),
    ("COc1cc(CN2CCN(c3ccc(C)c(C)c3)CC2)cc(OC)c1OC [Example 1]", 13000),
    ("COc1cc(CN2CCN(c3cc(C(F)(F)F)cc(C(F)(F)F)c3)CC2)cc(OC)c1OC [Example 5]", 5600),
]

---

Quick reference: selectivity ratio of the listed items.
- Measurement Description: in vivo
- Details: iv
Counter-ions that a name gives are not always drawn.

# Molecule, selectivity ratio
records = [
    ("COc1cc(CN2CCN(c3ccccc3F)CC2)cc(OC)c1OC.Cl [o. Fluoro-, hydrochloride]", 2280),
    ("COc1cc(CN2CCN(c3ccccc3[N+](=O)[O-])CC2)cc(OC)c1OC.Cl [o. Nitro-, hydrochloride]", 1300),
    ("COc1cc(CN2CCN(c3ccc(O)cc3)CC2)cc(OC)c1OC.Cl [p. Hydroxy-, hydrochloride]", 2800),
    ("CCc1ccccc1N1CCN(Cc2cc(OC)c(OC)c(OC)c2)CC1.Cl.Cl [o. Ethyl-, dihydrochloride]", 2240),
    ("COc1ccc(N2CCN(Cc3cc(OC)c(OC)c(OC)c3)CC2)cc1.Cl.Cl [p. Methoxy-, dihydrochloride]", 3050),
    ("COc1cc(CN2CCN(c3ccc(C)cc3)CC2)cc(OC)c1OC [p. Methyl-, hydrochloride]", 1630),
    ("CCOc1ccccc1N1CCN(Cc2cc(OC)c(OC)c(OC)c2)CC1.Cl.Cl [o. Ethoxy-, dihydrochloride]", 1990),
    ("COc1cc(CN2CCN(c3ccccc3C)CC2)cc(OC)c1OC", 1450),
    ("COc1cc(CN2CCN(c3ccccc3Cl)CC2)cc(OC)c1OC.Cl.Cl [o. Chloro-, dihydrochloride]", 2130),
]

---

- Measurement Description: in vivo
- Details: iv
API: label(entry) gives Satisfied if the entry's LD50 is strictly smaller than 900 mg/kg; on equality or larger values it gives Not satisfied.

# Molecule, Class Name
records = [
    ("COc1cc(CN2CCN(c3ccccc3[N+](=O)[O-])CC2)cc(OC)c1OC.Cl [o. Nitro-]", "Satisfied"),
    ("COc1cc(CN2CCN(c3cccc(C)c3)CC2)cc(OC)c1OC.Cl [m. Methyl-]", "Satisfied"),
    ("COc1cc(CN2CCN(c3ccccc3Cl)CC2)cc(OC)c1OC.Cl.Cl [o. Chloro-]", "Satisfied"),
    ("COc1cc(CN2CCN(c3ccc(O)cc3)CC2)cc(OC)c1OC.Cl [p. Hydroxy-]", "Not satisfied"),
]

---

- Test system: cerebrovascular resistance
- Measurement Description: cerebrovascular resistance on the rabbit (Hutten and Vaupel), decrease in vascular resistance after arterial application
- Assay type: in vivo
- Details: Table 1; rabbit, 0.1 ml of a 1% solution, arterial application
Each entry below carries its reported Absolute decrease of vascular resistance R.
Observable: Absolute decrease of vascular resistance R

# Compound, Meas Value
records = [
    ("COc1ccc(N2CCN(Cc3cc(OC)c(OC)c(OC)c3)CC2)cc1.Cl.Cl [p. Methoxy-]", "3,90 mm Hg min/l"),
    ("COc1cc(CN2CCN(c3cccc(C)c3)CC2)cc(OC)c1OC.Cl [m. Methyl-]", "3,2 mm Hg min/l"),
    ("COc1cc(CN2CCN(c3ccccc3Cl)CC2)cc(OC)c1OC.Cl.Cl [o. Chloro-]", "3,0 mm Hg min/l"),
    ("COc1cc(CN2CCN(c3ccccc3C)CC2)cc(OC)c1OC [o. Methyl-]", "3,3 mm Hg min/l"),
    ("C(=C\\c1ccccc1)/CN1CCN(C(c2ccccc2)c2ccccc2)CC1 [Cinnarizine, reference compound]", "2,9 mm Hg min/l"),
    ("COc1cc(CN2CCN(c3ccc(F)cc3)CC2)cc(OC)c1OC.Cl [p. Fluoro-]", "4,6 mm Hg min/l"),
    ("COc1ccccc1N1CCN(Cc2cc(OC)c(OC)c(OC)c2)CC1.Cl.Cl [o. Methoxy-]", "2,94 mm Hg min/l"),
    ("COc1cc(CN2CCN(c3ccccc3[N+](=O)[O-])CC2)cc(OC)c1OC.Cl [o. Nitro-]", "3,1 mm Hg min/l"),
    ("COc1cc(CN2CCN(c3ccc(O)cc3)CC2)cc(OC)c1OC.Cl [p. Hydroxy-]", "2,8 mm Hg min/l"),
]

---

- Measurement Description: in vivo
- Details: iv
- Text: The calculation of the therapeutic indices was based on the
Observable: LD50

# Compound, Meas Value
records = [
    ("CCOc1ccccc1N1CCN(Cc2cc(OC)c(OC)c(OC)c2)CC1.Cl.Cl [o. Ethoxy-]", "900 mg/kg"),
    ("CCc1ccccc1N1CCN(Cc2cc(OC)c(OC)c(OC)c2)CC1.Cl.Cl [o. Ethyl-]", "900 mg/kg"),
    ("COc1cc(CN2CCN(c3ccccc3F)CC2)cc(OC)c1OC.Cl [o. Fluoro-]", "920 mg/kg"),
    ("COc1ccc(N2CCN(Cc3cc(OC)c(OC)c(OC)c3)CC2)cc1.Cl.Cl [p. Methoxy-]", "910 mg/kg"),
]
